Target: T1, human NLRP3^PYD (residues 3-110, C-terminal 6 x histidine) (human, UniProt Q96P20 3-110)
T1 chain: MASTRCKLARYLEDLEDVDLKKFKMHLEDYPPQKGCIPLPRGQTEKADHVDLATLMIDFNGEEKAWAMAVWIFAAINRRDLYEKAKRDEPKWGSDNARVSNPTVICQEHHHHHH
Experiment: FP
Square brackets hold non-standard residues; d marks the D form. Primed or numbered codes have the meaning given here. Nle = CCCC[C@H](N)C(=O)O; FITC′ = fluorescein; βAla = NCCC(=O)O
experimental-endpoint: Kd (µM)

>>> observed_measurement("{FITC′}-[βAla]EELKKFK[Nle]KLGTV-NH2 [fPOP1-H2]")
9.2
